These entries and their values trace back to the MegaScale stability set (Tsuboyama et al. 2023).

B1: EHEE_rd2_1257 (parent)
chain: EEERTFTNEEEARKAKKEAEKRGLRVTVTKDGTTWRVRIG

variants of: B1; assay: folding stability dG (cDNA display proteolysis); higher = more stable; conditions: PBS, room temperature
Quick rule: folding stability dG of at least 2 kcal/mol means MET, below that means NOT MET.

| Variant name | Category label |
| --- | --- |
| K21Q | MET |
| R22Q | NOT MET |
| R4P | NOT MET |

From here, focus on the item given below.
input: Textbook exercise: given the entry "R36I" , state whether its folding stability dG is greater than or equal to 2 kcal/mol.
output: MET
